Data origin: paper PMC6299220

Assay: in vitro
Type: in vitro ADME
Conditions: mouse, plasma
From the text: Supplement mbo006184230st8.docx, table 1: Table S3. Profile of DG167 | column: value
Assay metric: fraction unbound

Quick check: fraction unbound of CCCCS(=O)(=O)Nc1ccc2cnn(C)c2c1 [DG167] ?
0.21

###

assay: in vitro; assay type: in vitro ADME; details: human
Assay metric: recovery (%)
# number only, unit % dropped from output

Quick check: recovery of CCCCS(=O)(=O)Nc1ccc2cnn(C)c2c1 [DG167] ?
92

###

test: Mouse liver microsomal (MLM) stability; settings: mouse, liver microsomes, MLM stability t1/2 without NADPH, without NADPH
Assay metric: half-life (h)
# number only, unit h dropped from output

Quick check: half-life of CCCCS(=O)(=O)Nc1ccc2[nH]nc(C)c2c1 [5g] ?
2.35
